Ref: patent US7101878B1

Each entry below lists one item and its recorded IC50 value.
- tested-target: rat GnRH receptor (Rattus norvegicus, UniProt P30969)
- Sequence (P30969 whole entry): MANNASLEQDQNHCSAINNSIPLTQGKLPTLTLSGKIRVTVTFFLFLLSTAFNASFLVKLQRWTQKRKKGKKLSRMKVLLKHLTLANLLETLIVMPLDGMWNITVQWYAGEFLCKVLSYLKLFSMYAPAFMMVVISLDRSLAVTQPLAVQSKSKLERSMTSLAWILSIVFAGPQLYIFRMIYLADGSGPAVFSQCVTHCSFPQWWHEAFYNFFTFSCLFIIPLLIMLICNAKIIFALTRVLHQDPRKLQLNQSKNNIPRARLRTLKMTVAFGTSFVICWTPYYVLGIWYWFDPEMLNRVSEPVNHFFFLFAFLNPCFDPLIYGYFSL
- protocol-description: Radioligand binding, 125I-GnRH-A, rat pituitary membranes
- Design: membranes were prepared from rat pituitary; from tissue; host or cells: rat pituitary
- assay-setup: read-out: rGnRH IC50
- Experimental: All compounds were diluted in 1% DMSO (final assay concentration) in binding assay buffer. […] Reactions were terminated by rapid filtration onto 96-well Packard GF/C filters soaked in 0.1% polyethyleneimine. Filters were washed three times with PBS buffer, dried and counted on a Packard Topcount by liquid scintillation counting. […] The reaction mixture was vortexed and incubated for 1 min at room temperature. […] Fractions were assessed for biological activity by radioligand binding.
value-kind: IC50 (nM)

[
  {
    "compound": "Cc1cc2c(cc1Cc1ccc(C(=O)NCC3CCCC(CNC(=O)C(F)(F)F)C3)o1)C(C)(C)CCC2(C)C (stereo not shown) [Compound 105]",
    "value-kind": "IC50",
    "quantitative-readout": 250
  },
  {
    "compound": "Cc1cc(C)nc(NS(=O)(=O)c2ccc(NC(=O)c3ccc(Cc4cc5c(cc4C)C(C)(C)CCC5(C)C)o3)cc2)n1 [Compound 97]",
    "value-kind": "IC50",
    "quantitative-readout": 1690
  },
  {
    "compound": "Cc1cc2c(cc1Cc1ccc(C(=O)NC3CCC(N)CC3)o1)C(C)(C)CCC2(C)C (stereo not shown) [Compound 112]",
    "value-kind": "IC50",
    "quantitative-readout": 7780
  },
  {
    "compound": "Cc1cc2c(cc1Cc1ccc(C(=O)NCc3ccccc3-c3ccccc3)o1)C(C)(C)CCC2(C)C [Compound 67]",
    "value-kind": "IC50",
    "quantitative-readout": 1160
  }
]

----------
- tested-target: human GnRH receptor (Homo sapiens, UniProt P30968)
- Construct: expressed in transfected cells; host or cells: HEK 293 (hGnRH-R/293, from Dr. Stuart Sealfon)
- Sequence (P30968 whole entry): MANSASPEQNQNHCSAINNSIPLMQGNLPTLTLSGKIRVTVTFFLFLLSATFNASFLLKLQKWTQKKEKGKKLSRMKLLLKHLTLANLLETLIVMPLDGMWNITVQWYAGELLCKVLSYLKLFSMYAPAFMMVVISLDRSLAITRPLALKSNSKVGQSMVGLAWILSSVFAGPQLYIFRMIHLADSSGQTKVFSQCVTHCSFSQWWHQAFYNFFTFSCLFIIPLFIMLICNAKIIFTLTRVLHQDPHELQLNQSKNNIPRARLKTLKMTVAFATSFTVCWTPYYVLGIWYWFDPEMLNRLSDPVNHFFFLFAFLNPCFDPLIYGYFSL
- protocol-description: Radioligand binding, 125I-GnRH-A displacement, membranes of HEK 293 cells with human GnRH receptor
- assay-setup: 1 h, repeat of % Inhib. at 1 uM; read-out: Repeats @ 1 uM hGnRH
value-kind: inhibition at 1 µM (%)

[
  {
    "molecule": "Cc1cc2c(cc1Cc1ccc(C(=O)NC(C)c3ccc(F)cc3)o1)C(C)(C)CCC2(C)C (stereo not shown)",
    "quantitative-readout": 35
  },
  {
    "molecule": "Cc1cc2c(cc1Cc1ccc(C(=O)NCCCNCc3ccc(Cl)cc3)o1)C(C)(C)CCC2(C)C",
    "quantitative-readout": -8
  },
  {
    "molecule": "Cc1cc2c(cc1Cc1ccc(C(=O)N3CCN(c4ccc(Cl)cc4)CC3)o1)C(C)(C)CCC2(C)C",
    "quantitative-readout": -17
  },
  {
    "molecule": "Cc1cc2c(cc1Cc1ccc(C(=O)NC3COC(C)(C)O[C@H]3c3ccccc3)o1)C(C)(C)CCC2(C)C (stereo partly shown)",
    "quantitative-readout": 0
  },
  {
    "molecule": "Cc1cc2c(cc1Cc1ccc(C(=O)N(C)[C@@H](C)[C@@H](O)c3ccccc3)o1)C(C)(C)CCC2(C)C",
    "quantitative-readout": -9
  },
  {
    "molecule": "Cc1cc2c(cc1Cc1ccc(C(=O)N(C)[C@@H](C)[C@H](C)c3ccccc3)o1)C(C)(C)CCC2(C)C",
    "quantitative-readout": 4
  },
  {
    "molecule": "Cc1cc2c(cc1Cc1ccc(C(=O)NCc3cc4c5ccccc5n(Cc5cc(Cl)ccc5Cl)c4cn3)o1)C(C)(C)CCC2(C)C",
    "quantitative-readout": -38
  },
  {
    "molecule": "COc1ccc(OC)c(CCNC(=O)c2ccc(Cc3cc4c(cc3C)C(C)(C)CCC4(C)C)o2)c1 [drawing 996]",
    "quantitative-readout": 36
  },
  {
    "molecule": "COc1cc(CNC(=O)c2ccc(Cc3cc4c(cc3C)C(C)(C)CCC4(C)C)o2)ccc1O [drawing 1222]",
    "quantitative-readout": 54
  },
  {
    "molecule": "Cc1cc2c(cc1Cc1ccc(C(=O)N3CCN(c4ccc(C(F)(F)F)cc4)CC3)o1)C(C)(C)CCC2(C)C",
    "quantitative-readout": 1
  },
  {
    "molecule": "Cc1cc2c(cc1Cc1ccc(C(=O)NCCc3c[nH]c4ccccc34)o1)C(C)(C)CCC2(C)C [drawing 1012]",
    "quantitative-readout": 81
  },
  {
    "molecule": "Cc1cc2c(cc1Cc1ccc(C(=O)NCCc3c[nH]c4ccc(OCc5ccccc5)cc34)o1)C(C)(C)CCC2(C)C",
    "quantitative-readout": -7
  },
  {
    "molecule": "Cc1cc2c(cc1Cc1ccc(C(=O)NCc3cccc(C(F)(F)F)c3)o1)C(C)(C)CCC2(C)C",
    "quantitative-readout": 16
  },
  {
    "molecule": "Cc1cc2c(cc1Cc1ccc(C(=O)NCCc3ccc(Br)cc3)o1)C(C)(C)CCC2(C)C [drawing 1171]",
    "quantitative-readout": 24
  },
  {
    "molecule": "Cc1cc2c(cc1Cc1ccc(C(=O)NC(C)(C)Cc3ccccc3)o1)C(C)(C)CCC2(C)C",
    "quantitative-readout": 39
  },
  {
    "molecule": "COc1cccc(CCNC(=O)c2ccc(Cc3cc4c(cc3C)C(C)(C)CCC4(C)C)o2)c1OC [drawing 1147]",
    "quantitative-readout": 63
  }
]
